# protocol: inhibitors of TNFa-induced NFkB p65 translocation, primary screen, imaging, HUVEC, MLSMR starter and 10KST1 sets (AID 438);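 also: compound added about 3h40 before a 20 min TNFalpha stimulation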;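 as to inhibition: signal is the nuclear over cytoplasmic p65 intensity ratio per well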
# test.conditions: HUVEC TNFa-induced p65 nuclear translocation; at 2 µM, stronger effect = higher value, 0% TNFa-plus-vehicle, 100% no-TNFa wells
Exercise: for every item that follows, state its recorded inhibition.
The answer is to be given in %; state only the numeric part.

Report inhibition for `CCc1nnc(NC(=O)c2ccc(COc3ccccc3)o2)s1` please.
-49

// inhibition lookup, key: `FC(F)(F)c1cc(-c2ccco2)nc(N2CCOCC2)n1`
-8.5

# get_value(readout='inhibition', item= O=C(C1CC1)N1CCC(c2nc(-c3ccc(S(=O)(=O)NCC4CCCO4)cc3)no2)CC1 (stereo unspecified) )
-3

Quick check: inhibition of `CC(C)CNS(=O)(=O)c1ccc(CCC(=O)N2CCOCC2)cc1` ?
1.1

What inhibition value was documented for this compound, `CCCC(=O)Nc1cc(C)c2c(=O)oc3ccccc3c2n1` ?
-24.4

May I ask what inhibition has been recorded for CCCCN=CC1=C(O)C(C(=O)OC)C(C)(C)CC1=O (stereo unspecified) ?
-4.3

Consider the compound shown here: `CC(C)c1nccn1S(=O)(=O)c1cc(Cl)ccc1Cl` What is its recorded inhibition?
-11.9

Dear colleague, I am looking for the recorded inhibition of the following compound: `CCN(CC)S(=O)(=O)c1ccc2[nH]cc(C(=O)NCCC3=CCCCC3)c(=O)c2c1`
8.4

Which measured inhibition value corresponds to CC(c1ccco1)N(Cc1ccco1)C(=O)Nc1ccccc1 (stereo unspecified) ?
1

Endpoint output: inhibition of `Cc1nnc(SCc2cc(=O)[nH]c(N3CCCCC3)n2)s1` . Value?
5

// lookup inhibition for `COc1ccc(S(=O)(=O)NCCC(=O)NC2CCCCCCC2)cc1`
2.8

###

# protocol: inhibitors of TNFa-induced NFkB p65 translocation, primary screen, imaging, HUVEC, MLSMR starter and 10KST1 sets (AID 438);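 also: compound added about 3h40 before a 20 min TNFalpha stimulation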
# test.conditions: HUVEC TNFa-induced p65 nuclear translocation; measured here: nuclei count (cytotoxicity indicator), at 2.08 µM
readout.name: cell count
The answer should be written as a number, with no unit following it.

I'd like to know its cell count. The molecule in question is `CC1CCN(Cc2nc3c(c(=O)n(C)c(=O)n3C)n2Cc2cccc3ccccc23)CC1`
703

Reported cell count, molecule CC(=O)NC(Cc1ccccc1)C(=O)NC1CCN(C(=O)c2cnccn2)CC1 (stereo unspecified) : ____
991

May I ask what cell count has been recorded for `Cc1cc(=O)n2nc(N3CCC(C(=O)N4CCN(Cc5ccccc5)CC4)CC3)sc2n1` ?
450

Query: cell count; subject: `CCOC(=O)/C(C#N)=C(/C)c1ccc(OC)cc1`
323

May I ask what cell count has been recorded for `CCOC(=O)N1CCN(C(=O)CSc2nnc(Cc3ccccc3)o2)CC1` ?
645

May I ask what cell count has been recorded for O=C(Nc1nc(-c2ccncc2)cs1)C1COc2ccccc2O1 (stereo unspecified) ?
646

###

# protocol: TLR3 IRF3 reporter activation blockers – cell-based, poly I:C stimulus, luciferase, 10K MLSCN set, primary screen (AID 602277)
# test.conditions: HEK293-TLR3 RL24 IRF3 luciferase reporter, at 10 µM, stronger effect = higher value
Lab note: compare inhibition against 10%. Equal or greater, write fulfilled. Smaller, write not fulfilled.

Is it the case that `O=C(C1CCN(S(=O)(=O)c2cccc3cccnc23)CC1)N1CCN(C2CCCCC2)CC1` has inhibition reaching or exceeding 10%?
fulfilled

Could you please find out whether `CCOC(=O)N(C)c1ccc(C(O)(C(F)(F)F)C(F)(F)F)cc1` has inhibition that meets 10% or exceeds it?
fulfilled

Please indicate if the recorded inhibition for `COC(=O)c1ccc(NC(=O)CN2CCN(c3ccc(Cl)cc3)CC2)cc1` meets or exceeds 10%.
fulfilled

Can `CCCCSc1nc2c(cnn2-c2ccc(F)cc2)c(=O)[nH]1` be said to have inhibition at or above 10%?
fulfilled

Check this compound for inhibition at or above 10%: `O=C(Nc1ccccc1N1CCCCC1)c1ncoc1-c1ccc(F)cc1`
not fulfilled

###

Provide the recorded NADPH fluorescence slope for the entries that follow.
# test.target: Voltage-gated potassium channel subunit beta-2 (Rattus norvegicus)
# protocol: enhancers of rat Kvbeta2 NADPH turnover – biochemical, NADPH fluorescence, primary screen (AID 623);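 also: fluorescence intensity change per second fitted from 20 to 320 s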
# test.conditions: Recombinant KvBeta, NADPH fluorescence decrease slope, 10 min; at 10 µM; stronger effect = lower value
Give the value as a plain number.

Report NADPH fluorescence slope for Cc1cc(C)c2[nH]c(=O)c(C(c3nnnn3Cc3ccc4c(c3)OCO4)N3CCC(C)CC3)cc2c1 (stereo unspecified) please.
6.4e-06

Can you share its NADPH fluorescence slope? I mean this compound: CC1C(=O)C(C)C(c2cccs2)NC1c1cccs1 (stereo unspecified)
9.3e-06

# query: NADPH fluorescence slope of entry O=C(O)C1C2C=CC(C3CC23)C1C(=O)NCCc1ccccc1 (stereo unspecified)
-3.5e-05

Which NADPH fluorescence slope value belongs to `COc1ccc(N2CCN(c3ccc(N)cc3C#N)CC2)cc1` ?
-2.3e-05

What NADPH fluorescence slope value was documented for this compound, `O=C(Nc1sc2c(c1C(=O)NCc1ccco1)CCCC2)c1ccc2c(c1)OCO2` ?
3.8e-06

// NADPH fluorescence slope lookup, key: `COC(=O)C1CCN(C(=O)NC(C)(C)C)CC1`
-4.3e-05

Looking for the measured NADPH fluorescence slope of CCOc1cc(C2C(C#N)=C(N)Oc3n[nH]c(CC)c32)ccc1OCCN1CCOCC1 (stereo unspecified) , can you help?
-3.1e-05

Any idea what its NADPH fluorescence slope is? The compound is `Cc1cc(C(=O)Nc2ccccc2C#N)n(-c2ccccc2)n1`
2.9e-05

I would be grateful if you could share the reported NADPH fluorescence slope for CCCC(=O)N1CC(=O)Nc2ccc(C)cc2C1c1ccc(F)cc1 (stereo unspecified) .
-3e-05

Form field: reported NADPH fluorescence slope of `Cc1c(C(=O)Nc2cnccn2)oc2ccccc12`
4.4e-05

Sample `COc1cc(Br)cc(/C=N/c2ncn[nH]2)c1O` — what was its NADPH fluorescence slope?
7.7e-05

###

# test.target: Voltage-gated potassium channel subunit beta-2 (Rattus norvegicus) (UniProt P62483)
# Sequence (P62483 whole entry, looked up): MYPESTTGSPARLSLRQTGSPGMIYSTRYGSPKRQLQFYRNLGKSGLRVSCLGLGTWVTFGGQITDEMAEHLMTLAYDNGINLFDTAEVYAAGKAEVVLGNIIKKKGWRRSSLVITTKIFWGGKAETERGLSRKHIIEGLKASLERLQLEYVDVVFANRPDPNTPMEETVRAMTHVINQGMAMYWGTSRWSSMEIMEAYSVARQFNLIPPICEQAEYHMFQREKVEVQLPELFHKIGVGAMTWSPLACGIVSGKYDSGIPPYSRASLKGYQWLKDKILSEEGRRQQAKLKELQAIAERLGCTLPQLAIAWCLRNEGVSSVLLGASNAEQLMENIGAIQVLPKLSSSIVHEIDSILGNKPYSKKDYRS
# protocol: enhancers of rat Kvbeta2 NADPH turnover – biochemical, NADPH fluorescence, primary screen (AID 623);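 also: fluorescence intensity change per second fitted from 20 to 320 s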
# test.conditions: Recombinant KvBeta, NADPH fluorescence decrease slope, 10 min; at 10 µM; stronger effect = lower value
readout.name: NADPH fluorescence slope
// no unit, no text: just the number

Would you mind telling me what NADPH fluorescence slope value was observed for `CCOC(=O)c1c(-c2ccc(C)o2)csc1NC(=O)COC(=O)c1cccs1` ?
-5.7e-05

For the compound shown here, `CN=Cc1cc(-c2ccccc2)sc1O` , give the reported NADPH fluorescence slope.
-1.5e-05

Requested field: NADPH fluorescence slope. Item: `CCc1nnc2n1N=C(c1ccc(-c3ccc(Cl)cc3Cl)o1)CS2`
1.7e-05

Give its NADPH fluorescence slope value. Item: `Cc1cc2nc(-c3ccco3)cc(C(F)(F)F)n2n1`
-1.8e-05

Can you look up the measured NADPH fluorescence slope of `COc1ccc(OCC(=O)N2CCN(C(=O)Cc3ccccc3)CC2)cc1` for me?
-4.7e-05

I'd like to know its NADPH fluorescence slope. The compound in question is `Cc1cc(=O)oc2c1ccc1oc(/C(=N/O)c3ccccc3)c(C)c12`
-3.7e-05

So what's the measured NADPH fluorescence slope for this one? `CCOc1ccccc1OCC(=O)NCc1ccco1`
-4.3e-05

I am curious: what NADPH fluorescence slope value has been reported for CN1C(=O)C(CC(=O)N2CCN(C(c3ccccc3)c3ccccc3)CC2)N(C)C1=O (configuration not stated) ?
5.9e-06

If you can, please state the reported NADPH fluorescence slope value of Cc1cccc(N2CCN(C(=O)C3CCCN(S(=O)(=O)c4cnc[nH]4)C3)CC2C)c1 (configuration not stated) .
1.5e-05

# get_value(readout='NADPH fluorescence slope', item= `COc1ccccc1OCC(=O)N1CCNC1=O` )
-4.2e-06

So what does the record say about NADPH fluorescence slope for `Cc1nn(-c2ccccc2)c(Cl)c1C(=O)NCC(=O)O` ?
-6.1e-05

Which NADPH fluorescence slope value belongs to `Cc1nnc2c3ccccc3c(-c3ccccc3)nn12` ?
-4.7e-05

Quick one: NADPH fluorescence slope of c1ccc(Cn2nnnc2C(c2cccs2)N2CCSCC2)cc1 (configuration not stated) ?
-6.4e-05

I'd like to know its NADPH fluorescence slope. The compound in question is `COc1ccc(Cl)cc1Nc1nc(NCCO)nc(N2CCCC2)n1`
-2.1e-05

Any idea what its NADPH fluorescence slope is? The compound is CCOCCCNC(=O)c1ccc2c(c1)N(Cc1ccccc1)C(=O)CS2=O (configuration not stated)
-1e-05

Data request, read-out NADPH fluorescence slope, for `Nn1c(SCC(=O)Nc2ccc(Oc3ccccc3)cc2)nnc1C1CC1`
1.7e-05

Given `CCC(CC)C(=O)Nc1cccc(C(=O)NCc2ccco2)c1` , state its recorded NADPH fluorescence slope.
-1.2e-05

Param item = `CCOC(=O)/C=C1\SCC(=O)N1Cc1ccc(Br)cc1` ; retrieve measured NADPH fluorescence slope.
-0.000366

Could you tell me which NADPH fluorescence slope is on file for CNC(=O)C1C2C=CC3(O2)C1C(=O)N(C1CC1)C3C(=O)NCc1ccc(OC)cc1 (configuration not stated) ?
-3.2e-05

Field request: NADPH fluorescence slope | item: O=C1CC(C(=O)Nc2ccc(Br)cc2)C2(CCCC2)O1 (configuration not stated)
-3e-05

Could you tell me which NADPH fluorescence slope is on file for C=CCN1C(=O)C2(C(C#N)=C(N)Oc3n[nH]c(CCC)c32)c2ccccc21 (configuration not stated) ?
-3.8e-05

Would you kindly share the measured NADPH fluorescence slope for `O=C(OCc1ccccc1F)c1ccc2c(c1)OCCO2` ?
-8.7e-06

Reported NADPH fluorescence slope for CC1=C(C(=O)OCc2ccccc2)C(c2ccc(C)o2)C2=C(CCCC2=O)N1 (configuration not stated) : what is it?
-3.8e-05

Please report the recorded NADPH fluorescence slope for O=C(C1CCCN(S(=O)(=O)c2cccnc2)C1)N1CCn2c1nc1ccccc12 (configuration not stated) .
-2.6e-05

Any idea what its NADPH fluorescence slope is? The compound is `Cc1ccc(-c2nn3c(C)nnc3s2)cc1N`
-3e-05

Item `CCNc1nc(N2CCOCC2)nc(N(c2ccccc2)c2ccccc2)n1` has what recorded NADPH fluorescence slope?
-5.9e-05

Need NADPH fluorescence slope, item CCOc1cc(-c2nc3ccccn3c2NCC2CCCO2)ccc1O (configuration not stated)
-2.7e-05

Which NADPH fluorescence slope is reported for this compound? COc1ccccc1NC(=O)CSc1nnc(-c2ccncc2)n1CC1CCCO1 (configuration not stated)
-1.1e-06

Could you share which NADPH fluorescence slope value was measured for `CSc1nc2ccc(Nc3nc(N4CCOCC4)nc(N4CCOCC4)n3)cc2s1` ?
-2.2e-05

What value of measured NADPH fluorescence slope is listed for `Oc1cc(NCc2cccnc2)ccc1-c1nc2ccccc2o1` ?
8.7e-06

Recorded NADPH fluorescence slope for `CC(=O)Nc1ccc(OC(=O)c2cccs2)cc1` , please?
5.9e-06

Find the recorded NADPH fluorescence slope belonging to `COc1cccc(NC(=O)NC2(C(F)(F)F)Oc3ccccc3O2)c1` and report it.
-0.000362

Reported NADPH fluorescence slope, compound `O=C(COC(=O)C1CCN(S(=O)(=O)c2cccs2)CC1)c1cc2ccccc2o1` : ____
-1.4e-05

Give its NADPH fluorescence slope value. Item: `COc1ccccc1NC(=O)Cn1nnc(-c2ccccc2NC(=O)c2ccco2)n1`
-1.3e-05

Report NADPH fluorescence slope for OC(CN1CCN(c2ccccc2)CC1)c1ccc2c(c1)CCN2 (configuration not stated) please.
-2.8e-05

May I ask what NADPH fluorescence slope has been recorded for `Cc1cccc(-c2nnn(CC/C(N)=N/O)n2)c1` ?
-2.1e-05

Need NADPH fluorescence slope, item `CCCCN(Cc1cc2cc(OC)ccc2[nH]c1=O)C(=O)c1ccccn1`
-6.3e-05

Entry under review: `CCOC(=O)c1cn(CC)c2cc(N3CCOCC3)c(F)cc2c1=O` . Reported NADPH fluorescence slope?
-1e-05

Give its NADPH fluorescence slope value. Item: `Nc1ncnc2nc(Sc3ccc(Cl)cc3)[nH]c12`
-6.5e-06

Item `CS(=O)(=O)N(Cc1nc2sc3c(c2c(=O)[nH]1)CCCC3)C1CCCCC1` has what recorded NADPH fluorescence slope?
-4.9e-05

Endpoint output: NADPH fluorescence slope of `CN1CCc2c(sc3c2c(=O)n(-c2ccccc2)c2nnc(SCc4ccc(F)cc4)n32)C1` . Value?
-5.9e-06

Fill blank: measured NADPH fluorescence slope of the compound `Cc1ccc2nc(-c3ccc4c(c3)OCCO4)cc(C(=O)O)c2c1` is ____.
-4e-05

Consider the compound shown here: `CCn1c2ccccc2c2cc(N)ccc21` What is its recorded NADPH fluorescence slope?
5.8e-06

If you can, please state the reported NADPH fluorescence slope value of `CC1CCN(Cc2ccc(NC(=O)C3CCN(c4nnc(-n5cccc5)s4)CC3)cc2)CC1` .
-5.4e-05

Consider the compound `COc1cc(C)c(-c2cc(C(=O)O)c(C)o2)cc1C(C)C` and give its measured NADPH fluorescence slope.
6.3e-06

Quick one: NADPH fluorescence slope of `O=C1CN(Cc2ccccc2)C(=NCc2ccco2)S1` ?
-2.2e-05

# query: NADPH fluorescence slope of entry `COC(=O)CCSCc1cn2cc(Cl)ccc2n1`
-1.7e-05
